# TARGET_OF_ASSAY: UniProtKB P03437
# PROTOCOL_TEXT: SPR affinity toward immobilized H3N2 hemagglutinin
# Type: binding, influenza type H3N2 (A/Aichi/2/1968)
# CONDITION_DETAILS: KD(app), H3N2 hemagglutinin, absence of DMSO, DMSO-free running buffer
For each entry below, report its pKd value.
Scale note: pKd = -log10(concentration in M).

Request: Can you look up the measured pKd of CCCCCCCCOCC1OC(CCCSC2(C(=O)O)CC(O)C(NC(C)=O)C(C(O)C(O)CO)O2)C=CC1OCCCCCCCC (stereo not drawn) [Compound 18b] for me?
Response: 3.45

Request: Can you look up the measured pKd of CCCCCCCCOCC1OC(OCCOCCOCCOCCOCCCSC2(C(=O)O)CC(O)C(NC(C)=O)C(C(O)C(O)CO)O2)C=CC1OCCCCCCCC (stereo not drawn) [Compound 23a] for me?
Response: 3.87

Request: Can you look up the measured pKd of CCCCCCCCOC1C(OC)OC(COCCOCCOCCOCCn2cc(CSC3(C(=O)O)CC(O)C(NC(C)=O)C(C(O)C(O)CO)O3)nn2)C(OCc2ccc(OC)cc2)C1OCCCCCCCC (stereo not drawn) [Compound 12b] for me?
Response: 3.55

###

# TARGET_OF_ASSAY: H1N1 Hemagglutinin (Influenza A virus, UniProt P03452)
# Sequence (P03452 18-565): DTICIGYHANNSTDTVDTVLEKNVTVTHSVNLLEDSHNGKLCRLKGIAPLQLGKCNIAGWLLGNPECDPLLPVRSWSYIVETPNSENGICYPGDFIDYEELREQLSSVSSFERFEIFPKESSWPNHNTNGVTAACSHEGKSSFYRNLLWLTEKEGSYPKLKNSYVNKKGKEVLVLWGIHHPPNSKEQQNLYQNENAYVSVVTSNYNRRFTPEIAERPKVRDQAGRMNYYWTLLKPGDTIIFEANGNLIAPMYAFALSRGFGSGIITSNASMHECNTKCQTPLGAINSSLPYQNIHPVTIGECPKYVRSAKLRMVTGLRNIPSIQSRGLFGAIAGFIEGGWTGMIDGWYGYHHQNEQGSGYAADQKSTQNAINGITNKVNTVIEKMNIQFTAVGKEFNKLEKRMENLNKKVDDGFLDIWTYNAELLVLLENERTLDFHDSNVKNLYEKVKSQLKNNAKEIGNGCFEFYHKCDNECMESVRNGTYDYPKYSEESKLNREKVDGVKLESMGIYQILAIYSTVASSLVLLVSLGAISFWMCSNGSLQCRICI
# PROTOCOL_TEXT: SPR affinity toward immobilized H1N1 hemagglutinin
# Type: binding, influenza type H1N1 (A/Puerto Rico/8/34)
# CONDITION_DETAILS: KD(app), H1N1 hemagglutinin, absence of DMSO, DMSO-free running buffer
MEASURED_METRIC: pKd
Scale note: pKd = -log10(concentration in M).

Request: Can you look up the measured pKd of CCCCCCCCOCC1OC(CCCSC2(C(=O)O)CC(O)C(NC(C)=O)C(C(O)C(O)CO)O2)C=CC1OCCCCCCCC (stereo not drawn) [Compound 18b] for me?
Response: 3.54

Request: Can you look up the measured pKd of CCCCCCCCOCC1OC(OCCOCCOCCOCCOCCCSC2(C(=O)O)CC(O)C(NC(C)=O)C(C(O)C(O)CO)O2)C=CC1OCCCCCCCC (stereo not drawn) [Compound 23a] for me?
Response: 3.97

Request: Can you look up the measured pKd of CCCCCCCCOC1C(OC)OC(COCCOCCOCCOCCn2cc(CSC3(C(=O)O)CC(O)C(NC(C)=O)C(C(O)C(O)CO)O3)nn2)C(OCc2ccc(OC)cc2)C1OCCCCCCCC (stereo not drawn) [Compound 12b] for me?
Response: 3.73

###

For each entry below, report its pKd value.
# TARGET_OF_ASSAY: H1N1 Hemagglutinin (Influenza A virus)
# PROTOCOL_TEXT: SPR affinity toward immobilized H1N1 hemagglutinin
# Type: binding, influenza type H1N1 (A/Puerto Rico/8/34)
# CONDITION_DETAILS: KD(app), H1N1 Hemagglutinin, PBST with 5% DMSO, 25 °C, steady-state single-site fit
# Experimental: SPR experiments were conducted using a BIAcore S200 instrument (Cytiva, Marlborough, MA, USA) employing a CM5 chip with a carboxymethyldextran surface (Cytiva, USA). […]
Scale note: pKd = -log10(concentration in M).

Request: Can you look up the measured pKd of CCCCCCCCOCC1OC(OCCOCCOCCOCCOCCCSC2(C(=O)O)CC(O)C(NC(C)=O)C(C(O)C(O)CO)O2)C=CC1OCCCCCCCC (centres unmarked) [Compound 23a] for me?
Response: 2.21

Request: Can you look up the measured pKd of CCCCCCCCOC1C(OC)OC(COCCOCCOCCOCCn2cc(CSC3(C(=O)O)CC(O)C(NC(C)=O)C(C(O)C(O)CO)O3)nn2)C(OCc2ccc(OC)cc2)C1OCCCCCCCC (centres unmarked) [Compound 12b] for me?
Response: 3.79

###

# PROTOCOL_TEXT: in vitro
# CONDITION_DETAILS: dog
MEASURED_METRIC: CC50 (µM)
Write down the numeric answer in µM and omit the unit.

Request: Can you look up the measured CC50 of CCCCCCCCOCC1OC(OCCOCCOCCOCCOCCCSC2(C(=O)O)CC(O)C(NC(C)=O)C(C(O)C(O)CO)O2)C=CC1OCCCCCCCC (stereo not shown) [Compound 23a] for me?
Response: 54

Request: Can you look up the measured CC50 of CCCCCCCCCCOCC1OC(CCCSC2(C(=O)O)CC(O)C(NC(C)=O)C(C(O)C(O)CO)O2)C=CC1OCCCCCCCCCC (stereo not shown) [Compound 18a] for me?
Response: 10

Request: Can you look up the measured CC50 of CCCCCCCCOC1C(OC)OC(COCCOCCOCCOCCn2cc(CSC3(C(=O)O)CC(O)C(NC(C)=O)C(C(O)C(O)CO)O3)nn2)C(OCc2ccc(OC)cc2)C1OCCCCCCCC (stereo not shown) [Compound 12b] for me?
Response: 34

Request: Can you look up the measured CC50 of CCCCCCCCCCOC1C(OC)OC(COCCOCCOCCOCCn2cc(CSC3(C(=O)O)CC(O)C(NC(C)=O)C(C(O)C(O)CO)O3)nn2)C(OCc2ccc(OC)cc2)C1OCCCCCCCCCC (stereo not shown) [Compound 12a] for me?
Response: 64

Request: Can you look up the measured CC50 of CCCCCCCCOCC1OC(CCCSC2(C(=O)O)CC(O)C(NC(C)=O)C(C(O)C(O)CO)O2)C=CC1OCCCCCCCC (stereo not shown) [Compound 18b] for me?
Response: 32

###

# Tested on: IAV (A/H3N2)
# PROTOCOL_TEXT: CPE reduction assay, influenza A/H3N2 in MDCK cells
# Assay type: cell-based, influenza A virus A/H3N2 (A/Victoria/361/11 or A/HK/7/87)
# CONDITION_DETAILS: Influenza A virus, H3N2, 72 h, microscopic scoring of cytopathic effect, day 3, read-out: Antiviral EC50, IAV (A/H3N2), CPE
pEC50: −log10 of the molar value.
For each entry below, report its pEC50 value.

Request: Can you look up the measured pEC50 of CCCCCCCCOCC1OC(OCCOCCOCCOCCOCCCSC2(C(=O)O)CC(O)C(NC(C)=O)C(C(O)C(O)CO)O2)C=CC1OCCCCCCCC (stereo not drawn) [Compound 23a] for me?
Response: < 4.00

Request: Can you look up the measured pEC50 of CCCCCCOCC1OC(OCCOCCOCCOCCOCCCSC2(C(=O)O)CC(O)C(NC(C)=O)C(C(O)C(O)CO)O2)C=CC1OCCCCCC (stereo not drawn) [Compound 23b] for me?
Response: < 4.00

Request: Can you look up the measured pEC50 of CCCCOC1C(OC)OC(COCCOCCOCCOCCn2cc(CSC3(C(=O)O)CC(O)C(NC(C)=O)C(C(O)C(O)CO)O3)nn2)C(OCc2ccc(OC)cc2)C1OCCCC (stereo not drawn) [Compound 12c] for me?
Response: < 4.00

###

# PROTOCOL_TEXT: in vitro
# CONDITION_DETAILS: dog
MEASURED_METRIC: CC50

Request: Can you look up the measured CC50 of CCCCCCOCC1OC(OCCOCCOCCOCCOCCCSC2(C(=O)O)CC(O)C(NC(C)=O)C(C(O)C(O)CO)O2)C=CC1OCCCCCC (centres unmarked) [Compound 23b] for me?
Response: > 100 µM

Request: Can you look up the measured CC50 of CCCCOC1C(OC)OC(COCCOCCOCCOCCn2cc(CSC3(C(=O)O)CC(O)C(NC(C)=O)C(C(O)C(O)CO)O3)nn2)C(OCc2ccc(OC)cc2)C1OCCCC (centres unmarked) [Compound 12c] for me?
Response: > 100 µM

Request: Can you look up the measured CC50 of CCCCCCOCC1OC(CCCSC2(C(=O)O)CC(O)C(NC(C)=O)C(C(O)C(O)CO)O2)C=CC1OCCCCCC (centres unmarked) [Compound 18c] for me?
Response: > 100 µM

Request: Can you look up the measured CC50 of NC(=O)c1ncn([C@@H]2O[C@H](CO)[C@@H](O)[C@H]2O)n1 [Ribavirin, reference compound] for me?
Response: > 250 µM

Request: Can you look up the measured CC50 of CC(=O)N[C@H]1[C@H]([C@H](O)[C@H](O)CO)OC(C(=O)O)=C[C@@H]1N=C(N)N [Zanamivir, reference compound] for me?
Response: > 100 µM
